Test system: SK-MEL-28 melanoma
Test: NCI-60 one-dose screen, 48 h (100 = growth as untreated, 0 = no growth, -100 = all killed)
Conditions: 10 µM unless noted
This is part of a sample that, as a whole, favours compounds with a hit. Of some 83,000 tested, about 20% had one in any assay.
Grouping key: growth. Bins: class 1 = under 50%, class 2 = from 50% up to 80%, class 3 = 80% and over

Molecule: Cc1ccc(Nc2cc(Cl)c([N+](=O)[O-])cc2[N+](=O)[O-])cc1
Assayed System: SK-MEL-28 melanoma
Category Label: class 2

Just checking, what class would you give "Cn1c(-c2ccccc2)cc(=O)n1-c1ccccc1" here?
class 3

Just checking, what class would you give COC(=O)OC1C(O[C@H]2C[C@H]3[C@@H]4CC=C5C[C@@H](O)CC[C@]5(C)[C@H]4CC[C@]3(C)[C@H]2[C@H](C)C(=O)CCC(C)C)OCC(O)C1OC1OCC(O)C(O)C1OC(=O)c1ccc(OC)cc1 (stereo not given in full) here?
class 1

Just checking, what class would you give "CS(=O)(=O)c1ccc(C(=O)N/N=C/c2ccccc2O)cc1" here?
class 2

Just checking, what class would you give "CCN(CC)CCCCCCCCNc1c2ccc(Cl)cc2nc2ccc(OC)cc12" here?
class 1

Just checking, what class would you give "CN(C)c1ccc(C2(Cl)c3ccccc3N(C)c3ccccc32)cc1" here?
class 2

Just checking, what class would you give CC[C@]1(O)C[C@H]2CN(CCc3c([nH]c4ccccc34)C(C(=O)OC)(c3cc4c(cc3OC)N(C)[C@H]3[C@@](O)(C(=O)OC)[C@H](OC(C)=O)[C@]5(CC)[C@@H]6C[C@@H]6CN6CC[C@]43[C@@H]65)C2)C1 (stereo not given in full) here?
class 2

Just checking, what class would you give "CCCCn1cnc2c(SCc3ccc([N+](=O)[O-])cc3)nc(N)nc21" here?
class 3

Just checking, what class would you give "CCC(=O)OCc1ccc(OC)cc1" here?
class 3

Just checking, what class would you give "C=C(C)[C@@H]1CC[C@]2(C(=O)O)CC[C@]3(C)[C@H](CC[C@@H]4[C@@]5(C)C[C@@H](CC#Cc6ccc(C(C)=O)s6)[C@H](O)C(C)(C)[C@@H]5CC[C@]43C)[C@@H]12" here?
class 2
